# System: 996289-038-R-J1-PDC complex spheroid viability;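 note: spheroids exposed to the agents for 7 days before readout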
# PROCEDURE_TEXT: Anticancer human tumor 996289-038-R-J1-PDC patient-derived colon adenocarcinoma cell line growth inhibition [CLK]
# STUDY_CONDITIONS: second compound 10 µM; first compound 10 µM; stronger effect = lower value
Quick reference for viability, T/C among some compounds
Your answer is read as %, so omit the unit and give the number.

Solved entries:
COMPOUND	UNIT_TEXT	viability, T/C
C=C(F)C(=O)N1CCN(c2nc(OCC3CCCN3C)nc3c2CCN(c2cccc4cccc(Cl)c24)C3)CC1CC#N (stereo not drawn) + CNC(=O)c1ccc(Nc2nc(OC3CCCC3)c3c(-c4ccc5nc(C)oc5c4)c[nH]c3n2)c(OC)c1	%	0.31
CC(Nc1ccc2c(c1)OCCn1cc(N3C(=O)OCC3C(F)F)nc1-2)C(N)=O (stereo not drawn) + CN1CCN(c2cc(C(=O)Nc3cc4cc(-c5cnn(C)c5)ccc4cn3)ccn2)CC1	%	0.47

Form entry - test system: 996289-038-R-J1-PDC complex spheroid viability; read-out: viability, T/C; compound: Nc1ccccc1NC(=O)c1ccc(CNC(=O)OCc2cccnc2)cc1 + CN1CCN(c2cc(C(=O)Nc3cc4cc(-c5cnn(C)c5)ccc4cn3)ccn2)CC1;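 note: spheroids exposed to the agents for 7 days before readout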
1.88
